SYSTEM: CDK9/cyclin T (Homo sapiens, UniProt P50750)
Construct: made in house; host or cells: insect cells
Sequence (P50750 whole entry): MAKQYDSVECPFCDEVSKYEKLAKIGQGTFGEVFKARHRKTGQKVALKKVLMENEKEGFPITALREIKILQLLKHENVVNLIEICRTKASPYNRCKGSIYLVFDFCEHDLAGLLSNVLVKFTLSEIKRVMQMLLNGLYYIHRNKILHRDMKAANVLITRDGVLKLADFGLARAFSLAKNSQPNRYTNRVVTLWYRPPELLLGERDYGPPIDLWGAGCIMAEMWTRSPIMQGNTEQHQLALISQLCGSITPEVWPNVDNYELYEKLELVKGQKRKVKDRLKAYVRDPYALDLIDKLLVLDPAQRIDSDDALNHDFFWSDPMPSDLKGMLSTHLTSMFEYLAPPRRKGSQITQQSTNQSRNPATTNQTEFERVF
Sequence (O60563 whole entry partner): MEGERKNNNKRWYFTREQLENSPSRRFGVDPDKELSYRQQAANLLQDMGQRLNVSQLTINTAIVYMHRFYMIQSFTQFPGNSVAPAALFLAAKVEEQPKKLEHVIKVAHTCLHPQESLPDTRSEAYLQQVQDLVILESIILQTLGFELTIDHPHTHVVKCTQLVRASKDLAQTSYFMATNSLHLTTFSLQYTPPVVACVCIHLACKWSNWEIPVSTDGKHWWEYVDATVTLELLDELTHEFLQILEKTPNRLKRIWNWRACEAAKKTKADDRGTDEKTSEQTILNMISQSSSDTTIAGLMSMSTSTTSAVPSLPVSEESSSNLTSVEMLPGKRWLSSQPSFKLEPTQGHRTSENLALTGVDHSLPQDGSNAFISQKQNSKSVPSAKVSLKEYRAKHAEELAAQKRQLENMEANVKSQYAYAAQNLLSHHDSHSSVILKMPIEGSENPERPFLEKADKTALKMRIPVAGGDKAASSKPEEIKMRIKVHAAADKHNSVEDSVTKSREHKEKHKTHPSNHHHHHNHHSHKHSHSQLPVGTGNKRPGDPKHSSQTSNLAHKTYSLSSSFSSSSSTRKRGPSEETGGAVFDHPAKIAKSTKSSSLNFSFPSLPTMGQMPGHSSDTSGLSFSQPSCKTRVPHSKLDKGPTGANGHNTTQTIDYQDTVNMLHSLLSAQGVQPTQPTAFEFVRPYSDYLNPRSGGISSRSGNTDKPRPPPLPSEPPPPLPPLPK
TEST DETAILS: CDK9/cyclin T kinase assay
Type: biochemical
EXPERIMENTAL CONTEXT: Table 5; read-out: CDK9/cyclin T
MEASUREMENT TYPE: IC50 (nM)

• CC[C@@H](CO)Nc1cc(NCc2ccc(-c3ccccn3)cc2)c2ncn(C(C)C)c2n1 [(S)-perharidine D] = 120
• CC[C@H](CO)Nc1cc(NCc2ccc(-c3ccccn3)cc2)c2ncn(C(C)C)c2n1 [(R)-perharidine C] = 530
• CC[C@@H](CO)Nc1cc(NCc2ccccc2)c2ncn(C(C)C)c2n1 [(S)-perharidine B] = 1300
• CC[C@H](CO)Nc1cc(NCc2ccccc2)c2ncn(C(C)C)c2n1 [(R)-perharidine A] = 480
